# target_or_system: human µ opioid receptor (human), P35372
# Sequence (P35372 whole entry): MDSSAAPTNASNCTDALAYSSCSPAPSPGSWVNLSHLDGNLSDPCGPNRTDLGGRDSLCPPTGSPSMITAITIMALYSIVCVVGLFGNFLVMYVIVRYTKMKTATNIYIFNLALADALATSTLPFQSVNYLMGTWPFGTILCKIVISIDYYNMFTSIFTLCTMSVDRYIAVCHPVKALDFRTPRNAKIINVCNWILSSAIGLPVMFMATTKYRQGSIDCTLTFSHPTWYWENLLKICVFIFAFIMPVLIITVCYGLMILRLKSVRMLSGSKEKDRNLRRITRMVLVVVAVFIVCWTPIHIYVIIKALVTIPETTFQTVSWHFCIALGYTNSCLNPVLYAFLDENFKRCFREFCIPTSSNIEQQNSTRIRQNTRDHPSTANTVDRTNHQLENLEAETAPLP
# measurement_notes: radioligand competition with [3H]naloxone (5 nM), membranes of CHO-K1 cells with recombinant human µ opioid receptor; Ki by Cheng-Prusoff
parameter: Ki (nM)
API: value field is a number in nM; no unit string.

Give a short answer stating reported Ki for YAGF (modifications not checked) [Biphalin] .
3.4
